# Test system: Calcium-activated potassium channel subunit alpha-1 (Homo sapiens), Q12791 [UNDEFINED MUTATION]
# Sequence (Q12791 whole entry, looked up, stated change not applied): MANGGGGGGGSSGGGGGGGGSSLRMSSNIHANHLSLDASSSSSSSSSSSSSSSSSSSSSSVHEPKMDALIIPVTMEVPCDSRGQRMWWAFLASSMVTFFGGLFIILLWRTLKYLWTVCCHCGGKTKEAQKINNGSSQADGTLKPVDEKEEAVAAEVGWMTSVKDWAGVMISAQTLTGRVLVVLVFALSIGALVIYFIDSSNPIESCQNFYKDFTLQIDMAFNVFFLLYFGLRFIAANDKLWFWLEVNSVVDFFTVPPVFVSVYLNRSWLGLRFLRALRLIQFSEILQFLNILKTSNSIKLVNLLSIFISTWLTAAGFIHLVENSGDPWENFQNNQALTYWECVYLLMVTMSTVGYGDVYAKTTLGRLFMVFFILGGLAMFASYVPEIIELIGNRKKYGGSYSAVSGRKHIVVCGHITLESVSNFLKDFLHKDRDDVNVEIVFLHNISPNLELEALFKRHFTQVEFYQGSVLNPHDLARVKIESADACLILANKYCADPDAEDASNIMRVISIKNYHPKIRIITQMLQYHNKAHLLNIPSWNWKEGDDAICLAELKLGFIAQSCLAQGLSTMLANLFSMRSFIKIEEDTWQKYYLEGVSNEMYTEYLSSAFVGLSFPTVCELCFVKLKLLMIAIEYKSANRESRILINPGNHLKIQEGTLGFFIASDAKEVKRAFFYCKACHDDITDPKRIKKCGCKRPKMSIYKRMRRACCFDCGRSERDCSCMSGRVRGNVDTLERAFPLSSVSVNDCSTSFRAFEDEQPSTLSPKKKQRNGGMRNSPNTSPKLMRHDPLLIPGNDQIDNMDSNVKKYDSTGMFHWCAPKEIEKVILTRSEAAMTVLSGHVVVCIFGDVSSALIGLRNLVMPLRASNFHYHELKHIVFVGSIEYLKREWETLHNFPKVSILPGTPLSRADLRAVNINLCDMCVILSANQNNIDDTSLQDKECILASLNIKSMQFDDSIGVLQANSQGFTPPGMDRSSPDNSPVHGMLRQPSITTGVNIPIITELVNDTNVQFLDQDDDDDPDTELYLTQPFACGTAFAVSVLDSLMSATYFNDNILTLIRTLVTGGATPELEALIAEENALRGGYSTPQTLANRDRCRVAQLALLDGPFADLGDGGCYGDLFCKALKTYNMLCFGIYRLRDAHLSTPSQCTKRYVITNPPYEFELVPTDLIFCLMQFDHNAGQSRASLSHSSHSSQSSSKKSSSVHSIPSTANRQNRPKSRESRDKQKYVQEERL
# METHOD_DESCRIPTION: Activation of hyperactive human BKca channel G803D/N806K mutant transfected in human AD-293 cells assessed as maximum relative fluorescence value at 1 uM preincubated for 15 mins followed by Tl+ stimulus buffer addition and measured after 80 sec by Flexstation3 multimode microplate reader analysis relative to control
# Type: cell-based
# REPORTED_CONDITIONS: time 980.0 sec
PROPERTY: Activity (%)

{"SUBSTANCE_SMILES": "Nc1ccc(Oc2c(F)c(F)c(C(F)(F)F)c(F)c2F)cc1", "UNIT_DESCRIPTOR": "%", "MEASURED": 18.1}
{"SUBSTANCE_SMILES": "Oc1ccc(Oc2cc(C(F)(F)F)cc(C(F)(F)F)c2)c(O)c1", "UNIT_DESCRIPTOR": "%", "MEASURED": 23.7}

1: Nc1ccc(Oc2c(F)c(F)c(C(F)(F)F)c(F)c2F)c(Cl)c1
2: COc1cc(N)ccc1Oc1c(F)c(F)c(C(F)(F)F)c(F)c1F
3: Nc1ccc(Oc2c(F)c(F)c(C(F)(F)F)c(F)c2F)c(F)c1
Rank by Activity (largest to smallest). Answer by listing the labels in the order asked for.
2, 3, 1
(2: 31.8%, 3: 17.9%, 1: 5.3%)

FYI, the data here is from ChEMBL document CHEMBL6153133.
